Molecular target: His-tagged mouse TfR ectodomain (mTFRC_89_764; mature protein) (mouse, UniProt Q62351 89-763)
Sequence (Q62351 other isoform, or with tags, fused parts or gaps): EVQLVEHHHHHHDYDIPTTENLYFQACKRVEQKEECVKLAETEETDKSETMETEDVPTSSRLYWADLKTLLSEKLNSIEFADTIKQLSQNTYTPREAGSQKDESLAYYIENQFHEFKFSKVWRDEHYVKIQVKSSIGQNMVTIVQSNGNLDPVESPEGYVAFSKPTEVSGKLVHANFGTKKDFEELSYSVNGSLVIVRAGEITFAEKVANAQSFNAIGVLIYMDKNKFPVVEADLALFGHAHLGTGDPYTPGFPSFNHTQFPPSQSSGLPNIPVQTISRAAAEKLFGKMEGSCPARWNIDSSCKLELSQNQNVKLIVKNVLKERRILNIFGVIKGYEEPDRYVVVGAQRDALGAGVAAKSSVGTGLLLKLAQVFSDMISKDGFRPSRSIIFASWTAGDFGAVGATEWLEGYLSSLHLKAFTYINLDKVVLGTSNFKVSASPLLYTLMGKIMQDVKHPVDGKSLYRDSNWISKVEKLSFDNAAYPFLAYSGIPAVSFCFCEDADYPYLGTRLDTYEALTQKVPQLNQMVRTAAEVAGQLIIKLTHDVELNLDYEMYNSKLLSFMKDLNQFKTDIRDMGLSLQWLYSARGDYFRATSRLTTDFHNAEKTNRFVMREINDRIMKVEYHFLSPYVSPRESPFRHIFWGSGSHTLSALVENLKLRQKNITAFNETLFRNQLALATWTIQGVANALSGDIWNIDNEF
Experiment: SPR, His-tagged mTfR ectodomain captured on anti-His
Method: Binding of the humanized Fab variants to human, cynomolgus and mouse TfR was assessed using SPR at pH 7.4. Experiments were run on a Bruker MASS-2 instrument with HBS-EP+ as running buffer and sample diluent (Cytiva Life Sciences, #BR100826). […] Concentration series of the humanized Fab variants were then injected for 4 min at 30 μL/min over hTfR surfaces and dissociation was monitored for 5 min. […]

binder	binding result
531_1L2_variant14 Fab (Fab, V domains shown, Humanized Fab; The His-tag was removed with TEV protease before SPR) VH: QVQLVQSGAEVKKPGASVKVSCKASDYTFTRYWLNWVRQAPGQGLEWMGMIDPSVSETHYAQKFQGRVTMTRDTSTSTVYMELSSLRSEDTAVYYCSQIRLPYYYAMDSWGQGTTVTVSS VL: DIQMTQSPSSLSASVGDRVTITCRASQDINSFLNWYQQKPGKAVKLLIYYTSRLQSGVPSRFSGSGSGTDYTLTISSLQPEDFATYFCQQGNTLPRTFGGGTKVEIK	no binding
531_1L2_variant8 Fab (Fab, V domains shown, Humanized Fab; The His-tag was removed with TEV protease before SPR) VH: EVQLLESGGGLVQPGGSLRLSCAASGYTFTRYYLNWVRQAPGKGLEWIGMIDPSVSETHYADSVKGRATLSVDKSKNTAYLQMNSLRAEDTAVYYCSQIRLPYYYAMDSWGQGTTVTVSS VL: DIQMTQSPSSLSASVGDRVTITCRASQDISSFLNWYQQKPGKAVKLLIYYTSRLQSGVPSRFSGSGSGTDYTLTISSLQPEDFATYFCQQGNTLPRTFGGGTKVEIK	no binding
531_1L2_variant24 Fab (Fab, V domains shown, Humanized Fab; The His-tag was removed with TEV protease before SPR) VH: QVQLVQSGAEVKKPGASVKVSCKASGYTFTRYYLNWVRQAPGQGLEWIGMIDPSVSETHYAQKFQGRATLTVDKSTSTAYMELSSLRSEDTAVYYCSQIRLPYYYAMDSWGQGTTVTVSS VL: DIQMTQSPSSLSASVGDRVTITCRASQDISSFLNWYQQKPGKAVKLLIYYTSRLQSGVPSRFSGSGSGTDFTLTISSLQPEDFATYFCQQGNTLPRTFGGGTKVEIK	no binding
